Task for the reader: assign each of the following compounds its reported Normalized Inhibition Rep 1.
target system: SaCas9 (Staphylococcus aureus)
Sequence (J7RUA5 1-1053): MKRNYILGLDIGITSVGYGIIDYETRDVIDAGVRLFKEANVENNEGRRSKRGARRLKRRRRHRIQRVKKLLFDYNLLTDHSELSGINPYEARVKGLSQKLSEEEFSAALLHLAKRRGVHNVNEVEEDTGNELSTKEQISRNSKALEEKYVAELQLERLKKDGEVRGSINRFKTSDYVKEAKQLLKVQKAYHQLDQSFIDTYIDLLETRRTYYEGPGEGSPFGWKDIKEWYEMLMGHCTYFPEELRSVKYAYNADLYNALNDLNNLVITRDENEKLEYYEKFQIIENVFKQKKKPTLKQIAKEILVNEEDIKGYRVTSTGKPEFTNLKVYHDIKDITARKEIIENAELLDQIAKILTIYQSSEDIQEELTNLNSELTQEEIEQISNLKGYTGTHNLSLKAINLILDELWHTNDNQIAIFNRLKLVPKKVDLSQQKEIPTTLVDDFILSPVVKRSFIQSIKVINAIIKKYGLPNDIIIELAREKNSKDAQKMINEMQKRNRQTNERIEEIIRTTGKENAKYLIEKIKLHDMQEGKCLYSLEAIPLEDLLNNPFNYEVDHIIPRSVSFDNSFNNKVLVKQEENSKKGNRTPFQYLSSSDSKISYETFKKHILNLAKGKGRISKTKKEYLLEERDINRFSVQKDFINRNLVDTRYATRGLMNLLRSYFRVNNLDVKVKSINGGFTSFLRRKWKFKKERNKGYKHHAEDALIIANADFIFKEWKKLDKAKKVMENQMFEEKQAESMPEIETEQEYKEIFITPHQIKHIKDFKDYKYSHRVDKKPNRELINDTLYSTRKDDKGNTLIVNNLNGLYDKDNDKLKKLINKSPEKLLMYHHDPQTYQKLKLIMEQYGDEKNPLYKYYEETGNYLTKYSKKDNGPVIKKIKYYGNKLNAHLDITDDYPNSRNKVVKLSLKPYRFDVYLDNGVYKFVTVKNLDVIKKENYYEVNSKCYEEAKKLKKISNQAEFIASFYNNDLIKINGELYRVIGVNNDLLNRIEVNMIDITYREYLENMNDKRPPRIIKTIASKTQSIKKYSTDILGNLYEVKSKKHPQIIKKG
procedure text: eGFP secondary assay, SaCas9
Assay type: cell-based
condition set: replicate 1
Answers are plain numbers.

Okay, here is my list. What is Normalized Inhibition Rep 1 for each of these?
1. CC1(C(=O)NC2CCCCC2)Cn2c(cc3ccccc32)C(=O)N1Cc1ccccc1 (stereo not drawn) [E234-0008]
2. COc1ccc(N2C(=O)c3cc4ccccc4n3CC2(C)C(=O)NC2CCCCC2)c(OC)c1 (stereo not drawn) [E234-0018]
3. COc1cccc(N2C(=O)c3cc4ccccc4n3CC2(C)C(=O)NC2CCCCC2)c1 (stereo not drawn) [E234-0006]
4. O=C1c2ccccc2C(=O)c2oc(-c3ccc(F)cc3)nc21 [T0502-0200]
5. COc1ccccc1-c1nn2c(-c3cccnc3)nnc2s1 [D727-0059]
6. Fc1cccc(-c2nnc3sc(-c4c[nH]c5ccccc45)nn23)c1 [Compound D727-0772]
7. CCCN(CCC)C(=O)C1CCCN(c2ccc(-c3ccccc3)nn2)C1 (stereo not drawn) [F305-0061]
8. Cc1cccc(NC(=O)c2cc3c(=O)n4ccccc4nc3s2)c1 [C243-0026]

1: 50.589; 2: 38.606; 3: 57.048; 4: 35.091; 5: 17.227; 6: 42.243; 7: 39.473; 8: 30.470

Okay, here is my list. What is Normalized Inhibition Rep 1 for each of these?
1. CC(=O)Nc1ccc(C(=O)Nc2ccc(CCc3nc4ccccc4n3-c3ccccc3)cc2)cc1 [F255-0057]
2. CNC(=O)c1sc(=S)n2c1[nH]c(=O)c1cc(Br)ccc12 [F083-0285]
3. Cc1occc1-c1nnc2sc(-c3c[nH]c4ccccc34)nn12 [Compound D727-0786]
4. O=c1oc2c(O)c(O)ccc2c2c1CCCC2 [D715-2438]
5. Cc1nc(Nc2ccc(N3CCOCC3)cc2)cc(-c2ccccc2)n1 [D278-0547]
6. Cc1ccc(-n2ncc(C(=O)Nc3ccc(Br)cc3)c2C2CCNCC2)cc1 [Compound E922-0258]

46.812
30.708
57.282
17.908
55.528
63.301
